Please provide measured phosphorylation enrichment for the entries that follow.
Molecular target: FGFR3 (UniProt P22607)
Sequence (P22607 whole entry, looked up): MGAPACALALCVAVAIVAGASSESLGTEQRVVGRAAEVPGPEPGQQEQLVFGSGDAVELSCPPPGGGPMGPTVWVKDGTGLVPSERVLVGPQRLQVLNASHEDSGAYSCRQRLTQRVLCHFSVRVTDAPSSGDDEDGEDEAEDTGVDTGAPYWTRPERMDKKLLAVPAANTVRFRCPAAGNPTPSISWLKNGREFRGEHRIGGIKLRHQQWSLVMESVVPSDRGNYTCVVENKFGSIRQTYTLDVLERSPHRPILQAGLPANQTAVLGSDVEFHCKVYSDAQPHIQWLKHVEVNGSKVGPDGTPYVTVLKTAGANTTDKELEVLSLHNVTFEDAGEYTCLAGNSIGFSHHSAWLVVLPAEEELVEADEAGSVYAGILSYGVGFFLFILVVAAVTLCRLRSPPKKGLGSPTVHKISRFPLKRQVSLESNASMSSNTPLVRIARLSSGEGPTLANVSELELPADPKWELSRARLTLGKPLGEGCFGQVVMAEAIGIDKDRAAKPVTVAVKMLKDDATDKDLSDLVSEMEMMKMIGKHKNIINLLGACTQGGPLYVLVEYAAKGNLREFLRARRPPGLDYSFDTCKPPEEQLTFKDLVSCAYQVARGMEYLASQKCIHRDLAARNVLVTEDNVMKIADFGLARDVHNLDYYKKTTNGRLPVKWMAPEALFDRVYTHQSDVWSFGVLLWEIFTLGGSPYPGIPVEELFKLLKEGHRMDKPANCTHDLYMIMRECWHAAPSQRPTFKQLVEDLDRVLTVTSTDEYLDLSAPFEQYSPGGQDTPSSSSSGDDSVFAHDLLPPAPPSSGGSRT
Experiment: phosphorylation enrichment, bacterial display (enrichment ratio); higher = better substrate or ligand; peptides without Tyr show the background;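 note: 11-residue human phosphosite peptides and single-mutation variants displayed on the E. coli surface, counted by deep sequencing, each peptide's frequency after selection divided by its frequency in the unselected input library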;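 note: frequency after pTyr selection over input frequency; kinase dosed for 20-30% of maximal phosphorylation in three min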
// no unit, no text: just the number

Request: Quote FGFR3 (UniProt P22607) phosphorylation enrichment for entry SKEPYYVRCIK [MYO1D_Y586] .
Response: 0.669

Request: Output reported phosphorylation enrichment of the sequence GGRKGYGGFSR [RECQL5_Y478_D480G] on FGFR3 (UniProt P22607).
Response: 0.452

Request: Look up FGFR3 (UniProt P22607) data: phosphorylation enrichment of DSILVYQRKEQ [USH2A_Y1909_G1911R] , then report it.
Response: 0.579

Request: Give phosphorylation enrichment; test system FGFR3 (UniProt P22607); sequence NALAQYQEMEK [BBS4_Y395]
Response: 0.658

Request: // output phosphorylation enrichment; input CQAHGYFCQPI [STK11_Y156_L160P] ; system FGFR3 (UniProt P22607)
Response: 0.538

Request: Find the measured phosphorylation enrichment of KLFYIYTSGTT [SLC27A4_Y245] with FGFR3 (UniProt P22607) as test system.
Response: 0.755

Request: Give FGFR3 (UniProt P22607) phosphorylation enrichment for the following sequence: DLNATYCTIQG [U2SURP_Y634_R635C]
Response: 0.954

Request: Write down the reported phosphorylation enrichment (system: FGFR3 (UniProt P22607)) of LNCIFYKDQTG [RS1_Y166_W163C_YF]
Response: 1.06

Request: Would you please give the reported phosphorylation enrichment of MSSHHYDYKKY [ZNF445_Y428] with FGFR3 (UniProt P22607)?
Response: 0.46

Request: # lookup: FGFR3 (UniProt P22607) phosphorylation enrichment, key = FAELVYTSFWH [ASS1_Y322_G324S]
Response: 4.28

Request: Report phosphorylation enrichment under test system FGFR3 (UniProt P22607) for LTSKPYAFTAR [NDUFS1_Y236] .
Response: 1.36

Request: Report value only: phosphorylation enrichment, FGFR3 (UniProt P22607), TLCLCYKETEE [ATP8B1_Y658_I661T]
Response: 0.903

Request: Output reported phosphorylation enrichment of the sequence LRGEDCGFSVD [PRKCI_Y430_Y430C] on FGFR3 (UniProt P22607).
Response: 1.41

Request: Look up and report measured phosphorylation enrichment (FGFR3 (UniProt P22607)) for the following sequence: PLLEYYWDIFT [CDAN1_Y713_R714W]
Response: 7.06

Request: Enter recorded phosphorylation enrichment with FGFR3 (UniProt P22607) for KANEYYPVVLI [ADAMTS18_Y765] here.
Response: 9.02

Request: State recorded phosphorylation enrichment with FGFR3 (UniProt P22607), entry SVTCTNSPALN [TP53_Y126_Y126N] , no comment.
Response: 0.699

Request: Recall the reported phosphorylation enrichment of RLDPVYFVAPA [LAMC2_Y250] when tested on FGFR3 (UniProt P22607).
Response: 5.76

Request: Quote FGFR3 (UniProt P22607) phosphorylation enrichment for entry RGFRQYAFDGK [HLA-A_Y140_D140Y_YF] .
Response: 0.779

Request: Please report phosphorylation enrichment with FGFR3 (UniProt P22607) for item FVHDNYVIQRT [CPS1_Y1450_R1453Q] .
Response: 0.567

Request: For FGFR3 (UniProt P22607), give the measured phosphorylation enrichment of the entry LTEEKYELKEG [TREM1_Y29]
Response: 0.979

Request: Report phosphorylation enrichment under test system FGFR3 (UniProt P22607) for GSETPYVDRTP [ESS2_Y335] .
Response: 0.553

Request: Look up FGFR3 (UniProt P22607) data: phosphorylation enrichment of FQKNIYSEEPR [LMNA_Y211_L215P] , then report it.
Response: 0.582

Request: // fetch phosphorylation enrichment; item: EWLRGYLENGK [HLA-C_Y195_R194G] ; system: FGFR3 (UniProt P22607)
Response: 0.601

Request: Find the measured phosphorylation enrichment of LNPLIYTLKNA [OR4C46_Y285] with FGFR3 (UniProt P22607) as test system.
Response: 0.886

Request: Identify measured phosphorylation enrichment obtained with FGFR3 (UniProt P22607) for WDLSEYSYKDP [ITGA3_Y237] .
Response: 0.631

Request: For FGFR3 (UniProt P22607), give phosphorylation enrichment of the listed sequence: SVTCTYSPALN [TP53_Y126]
Response: 0.984

Request: Report measured phosphorylation enrichment on FGFR3 (UniProt P22607); entry: HEKRAYICAHP [ACAD9_Y611_L606H]
Response: 0.548

Request: Give FGFR3 (UniProt P22607) phosphorylation enrichment for the following sequence: RGDTVYTVNCM [KBTBD13_Y404_R408C]
Response: 0.686

Request: Fill: phosphorylation enrichment (FGFR3 (UniProt P22607)) for this sequence DGNTRYSTFSE [TKTL1_Y318_D315N]
Response: 0.533

Request: Lab note: FGFR3 (UniProt P22607) assay, enter phosphorylation enrichment for TEYIQYVRRKN [MAX_Y73_M74V] here
Response: 0.488

Request: Provide FGFR3 (UniProt P22607) phosphorylation enrichment reading for LRLFSYSTTIR [CYP7B1_Y365_S363F] .
Response: 0.773

Request: Report measured phosphorylation enrichment on FGFR3 (UniProt P22607); entry: GLGVTYEQALA [MAP2_Y996]
Response: 0.477

Request: GET phosphorylation enrichment | system: FGFR3 (UniProt P22607) | item: KMGNIYRTEYG [MRPL3_Y265]
Response: 0.526

Request: Output reported phosphorylation enrichment of the sequence EHTILYSNNST [KANSL1_Y223_T221I] on FGFR3 (UniProt P22607).
Response: 0.468

Request: Write phosphorylation enrichment of RRKRAYVEIEF [MAK16_Y282_Q277R_YF] ; system used: FGFR3 (UniProt P22607)
Response: 0.871

Request: Identify measured phosphorylation enrichment obtained with FGFR3 (UniProt P22607) for PSSRDYKDNIK [PIGN_Y227_H229D] .
Response: 0.614

Request: Write down the reported phosphorylation enrichment (system: FGFR3 (UniProt P22607)) of VDASYCGGRGV [ANTXR2_Y381_Y381C]
Response: 0.463

Request: Supply phosphorylation enrichment measured with FGFR3 (UniProt P22607) for RQAQAYRGQRV [TSHR_Y706] .
Response: 1

Request: Fill in: phosphorylation enrichment on FGFR3 (UniProt P22607), entry TDRNLYSKNLV [CFAP58_Y501_S496T]
Response: 0.531

Request: # return phosphorylation enrichment for LIDSSYLTPTA [GREB1L_Y1063_R1066P] , test system: FGFR3 (UniProt P22607)
Response: 0.825

Request: Enter phosphorylation enrichment (test system FGFR3 (UniProt P22607)) for QMVRMYASSYM [AVPR2_Y124_G122R]
Response: 0.988

Request: Enter recorded phosphorylation enrichment with FGFR3 (UniProt P22607) for RWGQKYMTAVV [CYBA_Y72] here.
Response: 0.884

Request: Output reported phosphorylation enrichment of the sequence KTKLGYSPLHQ [ANK1_Y735] on FGFR3 (UniProt P22607).
Response: 0.385

Request: Enter recorded phosphorylation enrichment with FGFR3 (UniProt P22607) for IINENYDFLKV [NUP98_Y1664_G1669V_YF] here.
Response: 0.779

Request: Report phosphorylation enrichment on FGFR3 (UniProt P22607) for this entry: TFGNLYGSRKQ [YIPF7_Y59_A54T_YF]
Response: 0.421

Request: Enter recorded phosphorylation enrichment with FGFR3 (UniProt P22607) for QAEEWYFGKMG [YES1_Y159] here.
Response: 1.07

Request: // fetch phosphorylation enrichment for SKNSKYNAEST [PSEN1_Y315] ; system: FGFR3 (UniProt P22607)
Response: 0.366

Request: Find phosphorylation enrichment for DDKEFYSVHNK [MET_Y1235_Y1230D_YF] on FGFR3 (UniProt P22607) and write it down.
Response: 0.571

Request: Consider the sequence PLYRKYWPNHI [GREB1L_Y1560] tested on FGFR3 (UniProt P22607); state its phosphorylation enrichment.
Response: 1.07

Request: State phosphorylation enrichment on FGFR3 (UniProt P22607). Entry: FKDVTYLKEEK [UBE3A_Y127_T129K]
Response: 0.728

Request: State recorded phosphorylation enrichment with FGFR3 (UniProt P22607), entry VMTLDYSKTVV [SETD2_Y770_V768L] , no comment.
Response: 0.701

Request: Give phosphorylation enrichment for YSPCDYQPCLA [TNS1_Y798_Y796C] tested on FGFR3 (UniProt P22607).
Response: 3.25

Request: Give phosphorylation enrichment for GISDEYHVIWH [GCDH_Y398_R402W] tested on FGFR3 (UniProt P22607).
Response: 4.61

Request: Look up and report measured phosphorylation enrichment (FGFR3 (UniProt P22607)) for the following sequence: NKKHHYRELPV [ERN2_Y860]
Response: 2.45

Request: Provide phosphorylation enrichment, system FGFR3 (UniProt P22607), entry FSAPNCCFRCG [PPP2CA_Y265_Y265C_YF]
Response: 0.663

Request: Recall the reported phosphorylation enrichment of LKVDVYRRSHK [FUT3_Y222_G223R] on FGFR3 (UniProt P22607) and write it down.
Response: 0.85

Request: // fetch phosphorylation enrichment; item: ESSKAYERDLS [TTC37_Y1074_A1077D] ; system: FGFR3 (UniProt P22607)
Response: 0.524

Values from the supplement of paper PMC10065799
